biological target: Tyrosyl-tRNA synthetase, putative (Trypanosoma cruzi (strain CL Brener)) (UniProt Q4DSP6); assay: Trypanosoma cruzi tyrosyl tRNA synthetase (TcYRS) _High Tyrosine SOP; assay type: functional; parameters: scale not given: in the data most compounds retested in dose-response had high values; conditions: 30 µM
Sequence (Q4DSP6 as listed by the source): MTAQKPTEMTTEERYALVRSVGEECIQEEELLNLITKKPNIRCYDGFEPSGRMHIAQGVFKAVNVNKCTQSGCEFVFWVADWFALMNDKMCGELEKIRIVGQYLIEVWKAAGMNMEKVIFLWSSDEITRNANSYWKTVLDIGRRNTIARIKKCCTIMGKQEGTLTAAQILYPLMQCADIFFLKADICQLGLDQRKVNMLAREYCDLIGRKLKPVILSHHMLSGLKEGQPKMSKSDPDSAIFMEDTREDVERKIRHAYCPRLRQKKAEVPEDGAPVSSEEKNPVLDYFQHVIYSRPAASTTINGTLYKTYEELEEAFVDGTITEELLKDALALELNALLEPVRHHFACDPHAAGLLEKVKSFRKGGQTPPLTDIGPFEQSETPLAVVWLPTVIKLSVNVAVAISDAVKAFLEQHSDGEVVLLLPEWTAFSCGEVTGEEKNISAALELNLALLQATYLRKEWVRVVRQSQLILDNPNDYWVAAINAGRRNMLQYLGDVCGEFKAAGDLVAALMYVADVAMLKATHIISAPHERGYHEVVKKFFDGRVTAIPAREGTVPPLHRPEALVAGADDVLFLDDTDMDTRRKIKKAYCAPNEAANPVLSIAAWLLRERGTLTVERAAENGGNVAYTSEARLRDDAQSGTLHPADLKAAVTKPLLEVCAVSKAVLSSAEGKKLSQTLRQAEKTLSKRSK
Assay metric: Percent Effect (%)
Answer format: numeric, % implied, no suffix.

compound="COc1cc(C)c(C(C)NC(=O)Nc2nnc(C)s2)cc1OC (centres undefined)" experimental_value=2.15
compound="Fc1cccc(-c2nc(CN3CCOC(Cn4cccn4)C3)co2)c1 (centres undefined)" experimental_value=7.39
compound=CCn1c(C(=O)N2CCN(C(=O)NC(C)C)CC2)cc2ccccc21 experimental_value=0

Exercise: Item c1nc2n(n1)CC(NCc1nc(-c3ccsc3)no1)CC2 (centres undefined) has what recorded Percent Effect?
Solution: 2.97

Exercise: Item "CN(C)S(=O)(=O)N1CCC(Oc2ccccn2)CC1" has what recorded Percent Effect?
Solution: 6.35

Exercise: Item Cc1ccc(N2CCCC(NCC(=O)Nc3cc(C)no3)C2)nn1 (centres undefined) has what recorded Percent Effect?
Solution: 1.04

Exercise: Item COc1cccc(N2CCN(CC(O)c3ccc(C)cc3)CC2)c1 (centres undefined) has what recorded Percent Effect?
Solution: 5.32

Exercise: Item "Cc1nc(CN2CCn3cc(CNC(=O)C4CCC4)nc3C2)cs1" has what recorded Percent Effect?
Solution: 9.38

Exercise: Item CC(NC(=O)NCCNc1ncccn1)c1cccs1 (centres undefined) has what recorded Percent Effect?
Solution: 8.74

Exercise: Item CC(C)c1n[nH]c(C2CN(C(=O)c3cccc4cn[nH]c34)CCO2)n1 (centres undefined) has what recorded Percent Effect?
Solution: 2.46

Exercise: Item Cc1nn(C)c(Cl)c1C1CCCN1C(=O)c1cc[nH]n1 (centres undefined) has what recorded Percent Effect?
Solution: 2.46

Exercise: Item "O=C(c1cccnc1-n1cncn1)N1CCc2ccccc2C1" has what recorded Percent Effect?
Solution: 5.82

Exercise: Item CC(NC(N)=O)C(=O)N(C)CCCc1cc(-c2ccccc2)no1 (centres undefined) has what recorded Percent Effect?
Solution: 3.96

Exercise: Item "CCOc1cc(F)ccc1NS(=O)(=O)c1cc(C)c(C(=O)O)s1" has what recorded Percent Effect?
Solution: -5.38

Exercise: Item "CC(=O)c1c(F)cccc1N1CCC(Cc2cccnc2)CC1" has what recorded Percent Effect?
Solution: 7.29

---

molecular target: Arginase-2, mitochondrial (Homo sapiens); assay: in vitro enzyme assay to detect the production of urea directly proportional to the activity of Arginase II; assay type: functional; design: scale not given: in the data most compounds retested in dose-response had high values; conditions: 33.3 µM
Assay metric: Percent Effect (%)
Answer format: numeric, % implied, no suffix.

Look over these answered cases.
compound=CN(C)C(=O)COC[C@]12COC[C@H]1CN(CC1CCC1)C2 value_units=% experimental_value=6.7
compound=COCCO[C@@H]1CCN(C(=O)c2ccc(C)o2)[C@@H]1Cc1cnn(C)c1 value_units=% experimental_value=-2.08
compound=O=C(NCc1ccc(-n2cncn2)nc1)c1ccoc1 value_units=% experimental_value=-10.4

Exercise: Item "Cc1ccc2c(c1)C1(CC2)CCN(c2nncs2)CC1" has what recorded Percent Effect?
Solution: 3.59

Exercise: Item "Cc1noc([C@H]2C[C@@H]3CCN(C(=O)C4CCOCC4)C[C@H]3O2)n1" has what recorded Percent Effect?
Solution: 8.6

Exercise: Item "CCC1=N[C@@]2(CC[C@@H]3CN(S(=O)(=O)CC(C)C)C[C@@H]32)C(=O)N1C" has what recorded Percent Effect?
Solution: 7.1

Exercise: Item CN(CCCNc1cc(N2CCCC2CO)ncn1)S(C)(=O)=O (stereo unspecified) has what recorded Percent Effect?
Solution: 1.82

Exercise: Item "COc1cccc(CNCCc2cc(F)cc3c2OCOC3)c1" has what recorded Percent Effect?
Solution: 3.53

Exercise: Item CCC(C)CNc1ccc2oc(COC)nc2c1 (stereo unspecified) has what recorded Percent Effect?
Solution: 6.67

Exercise: Item O=C(Cc1ccccn1)N1CCC2(CC1)CC(Oc1ccccn1)CO2 (stereo unspecified) has what recorded Percent Effect?
Solution: -5.36

Exercise: Item "CCCn1ncc(CN2C[C@@H]3CCCN3C[C@@H]2CCSC)c1C" has what recorded Percent Effect?
Solution: -3.02

Data origin, for the record: ChEMBL document CHEMBL3988442
